EC50 values by entry
Tested on: mouse fibroblast cell line L929
Assay Text: Antiproliferative WST-1 assay
Assay type: cell-based
Recorded Conditions: Mus musculus, L929, 120 h; WST-1, 5 days
Attribute Measured: EC50 (µM)

Compound: O=[N+]([O-])c1c(N2CCCCC2)nc2c(ccc3ccccc32)c1C(Cl)Cl [Compound 11a]
Units Symbol: µM
Inequality Sign: >
Measured Number: 50

Compound: O=C(O)CSc1nc2c(ccc3ccccc32)c(C(Cl)Cl)c1[N+](=O)[O-]
Units Symbol: µM
Inequality Sign: =
Measured Number: 45

Compound: O=[N+]([O-])c1c(N2CCOCC2)nc2c(ccc3ccccc32)c1C(Cl)Cl [Compound 11b]
Units Symbol: µM
Inequality Sign: =
Measured Number: 27

Compound: O=[N+]([O-])c1c([S+]([O-])c2ccc(F)cc2)nc2c(ccc3ccccc32)c1C(Cl)Cl (stereo not drawn)
Units Symbol: µM
Inequality Sign: =
Measured Number: 3.3

Compound: O=[N+]([O-])c1c(Sc2ccc(F)cc2)nc2c(ccc3ccccc32)c1C(Cl)Cl [Compound 10d]
Units Symbol: µM
Inequality Sign: >
Measured Number: 50

Compound: CCOC(=O)C[S+]([O-])c1nc2c(ccc3ccccc32)c(C(Cl)Cl)c1[N+](=O)[O-] (stereo not drawn)
Units Symbol: µM
Inequality Sign: =
Measured Number: 2.5

* * *

System: Staphylococcus aureus MRSA (DSM 11822)
Assay Text: Antibacterial growth inhibition screen, residual growth in % (OD600)
Type: cell-based
Recorded Conditions: Staphylococcus aureus; strain DSM 11822; compound concentration 5 µM; 18 h at 37 °C

Molecule: O=[N+]([O-])c1c(N2CCCCC2)nc2c(ccc3ccccc32)c1C(Cl)Cl [Compound 11a]
activity at 5 µM (%): 95.6
//
Molecule: CC(=O)NC[C@H]1CN(c2ccc(N3CCOCC3)c(F)c2)C(=O)O1 [Linezolid, reference compound]
activity at 5 µM (%): 1
//
Molecule: CCOC(=O)CSc1nc2c(ccc3cc4ccccc4cc32)c(C(Cl)Cl)c1[N+](=O)[O-] [Compound 6]
activity at 5 µM (%): 112
//
Molecule: O=[N+]([O-])c1c(-n2cccn2)nc2c(ccc3ccccc32)c1C(Cl)Cl [Compound 18c]
activity at 5 µM (%): 110
//
Molecule: O=[N+]([O-])/C(C(Cl)=C(Cl)Cl)=C(\Nc1cccc2ccccc12)n1cccn1 [Compound 17c]
activity at 5 µM (%): 101
//
Molecule: O=[N+]([O-])c1c([S+]([O-])c2ccc(F)cc2)nc2c(ccc3ccccc32)c1C(Cl)Cl (stereo not shown) [Compound 12]
activity at 5 µM (%): 2
//
Molecule: O=[N+]([O-])c1c(-n2nnc3ccccc32)nc2c(ccc3ccccc32)c1C(Cl)Cl [Compound 18a]
activity at 5 µM (%): 95.1

* * *

activity at 5 µM values by entry
System: Staphylococcus aureus MRSA (DSM 11822)
Assay Text: Antibacterial growth inhibition screen, residual growth in % (OD600)
Format: cell-based
Recorded Conditions: Staphylococcus aureus; strain DSM 11822; compound concentration 5 µM; 18 h at 37 °C

Molecule: O=C(O)CSc1nc2c(ccc3ccccc32)c(C(Cl)Cl)c1[N+](=O)[O-]
Experimental System: Staphylococcus aureus MRSA (DSM 11822)
activity at 5 µM [%]: 1
--
Molecule: O=[N+]([O-])c1c(-n2cncn2)nc2c(ccc3ccccc32)c1C(Cl)Cl [Compound 18b]
Experimental System: Staphylococcus aureus MRSA (DSM 11822)
activity at 5 µM [%]: 107
--
Molecule: O=[N+]([O-])c1c(Sc2ccc(F)cc2)nc2c(ccc3ccccc32)c1C(Cl)Cl [Compound 10d]
Experimental System: Staphylococcus aureus MRSA (DSM 11822)
activity at 5 µM [%]: 98.4
--
Molecule: CCOC(=O)C[S+]([O-])c1nc2c(ccc3ccccc32)c(C(Cl)Cl)c1[N+](=O)[O-] (centres unmarked)
Experimental System: Staphylococcus aureus MRSA (DSM 11822)
activity at 5 µM [%]: 1
--
Molecule: O=[N+]([O-])/C(C(Cl)=C(Cl)Cl)=C(\Nc1cccc2ccccc12)n1nnc2ccccc21 [Compound 17a]
Experimental System: Staphylococcus aureus MRSA (DSM 11822)
activity at 5 µM [%]: 120
--
Molecule: O=[N+]([O-])C(C(Cl)=C(Cl)Cl)=C(n1cccn1)n1cccn1 [Compound 16c]
Experimental System: Staphylococcus aureus MRSA (DSM 11822)
activity at 5 µM [%]: 126
--
Molecule: O=[N+]([O-])/C(C(Cl)=C(Cl)Cl)=C(\Nc1cccc2ccccc12)n1cncn1 [Compound 17b]
Experimental System: Staphylococcus aureus MRSA (DSM 11822)
activity at 5 µM [%]: 112
--
Molecule: O=[N+]([O-])c1c(N2CCOCC2)nc2c(ccc3ccccc32)c1C(Cl)Cl [Compound 11b]
Experimental System: Staphylococcus aureus MRSA (DSM 11822)
activity at 5 µM [%]: 123
